- experimentDescription: Antiproliferative activity against human MRC5 cells incubated for 72 hrs by CCK8 assay
- Assay type: toxicity, cell-based
parameterMeasured: IC50 at 72 h (nM)
Give a bare numeral; the unit nM is implied.

>>> print(df.to_string())
                    compoundstructurestring  valuemeasured
0  COc1ccc(-c2ccc3[nH]c(=O)c4nnn(-c5ccc(N6CCNCC6)c(C(F)(F)F)c5)c4c3c2)cn1           1310

In the following, a different compound is considered.
[in] Find the recorded IC50 at 72 h belonging to COc1ccc(-c2ccc3[nH]c(=O)c4nnn(-c5ccc(N6CCN(C(=O)/C=C/C(=O)c7ccc(F)cc7)CC6)c(C(F)(F)F)c5)c4c3c2)cn1 and report it.
[out] 1090

---

- experimentDescription: AUClast in Sprague-Dawley rat at 5 mg/kg, iv measured for 24 hrs
- Assay type: ADME, organism-based
- testSettings: in vivo
parameterMeasured: AUClast
Remember to follow the number with its unit.

[in] Given the molecule COc1ccc(-c2ccc3[nH]c(=O)c4nnn(-c5ccc(N6CCN(C(=O)/C=C/C(=O)c7ccc(F)cc7)CC6)c(C(F)(F)F)c5)c4c3c2)cn1 , what is its reported AUClast?
[out] 1210 ng·h/mL

---

# IC50 at 72 h listing for each entry below
- experimentDescription: Antiproliferative activity against HEK293 cells incubated for 72 hrs by CCK8 assay
- Format: toxicity, cell-based
- testSettings: human
In your response, put the unit directly after the numeric value.

>>> df
                    compoundstructurestring  parametermeasured  valuemeasured
0  COc1ccc(-c2ccc3[nH]c(=O)c4nnn(-c5ccc(N6CCN(C(=O)/C=C/C(=O)c7ccc(F)cc7)CC6)c(C(F)(F)F)c5)c4c3c2)cn1       IC50 at 72 h        1.05 µM

[in] Param item = COc1ccc(-c2ccc3[nH]c(=O)c4nnn(-c5ccc(N6CCNCC6)c(C(F)(F)F)c5)c4c3c2)cn1 ; retrieve measured IC50 at 72 h.
[out] 1.94 µM

---

- experimentDescription: Oral bioavailability in Sprague-Dawley rat at 10 mg/kg measured for 24 hrs
- Format: ADME, organism-based
- testSettings: in vivo
parameterMeasured: bioavailability
Quick note: number first, unit second.

[in] Field request: bioavailability | item: COc1ccc(-c2ccc3[nH]c(=O)c4nnn(-c5ccc(N6CCN(C(=O)/C=C/C(=O)c7ccc(F)cc7)CC6)c(C(F)(F)F)c5)c4c3c2)cn1
[out] 49.7%

---

- experimentDescription: AUClast in Sprague-Dawley rat at 10 mg/kg, ip measured for 24 hrs
- Type: ADME, organism-based
- testSettings: in vivo
parameterMeasured: AUClast (ng·h/mL)
State just the number; it will be interpreted in ng·h/mL.

[in] Using the record for COc1ccc(-c2ccc3[nH]c(=O)c4nnn(-c5ccc(N6CCN(C(=O)/C=C/C(=O)c7ccc(F)cc7)CC6)c(C(F)(F)F)c5)c4c3c2)cn1 , report its AUClast.
[out] 1200

---

- Test system: HeLa
- experimentDescription: Antiproliferative activity against human HeLa cells incubated for 72 hrs by CCK8 assay
- Format: functional, cell-based
parameterMeasured: IC50 (nM)
Respond numerically; units are nM and should not be typed.

In [3]: df
Out[3]:
                    compoundstructurestring  unitinfo  valuemeasured
0  COc1ccc(-c2ccc3[nH]c(=O)c4nnn(-c5ccc(N6CCN(C(=O)/C=C/C(=O)c7ccc(F)cc7)CC6)c(C(F)(F)F)c5)c4c3c2)cn1        nM            580

Please turn your attention to the following entry.
[in] What value of IC50 has been recorded for this entry: COc1ccc(-c2ccc3[nH]c(=O)c4nnn(-c5ccc(N6CCNCC6)c(C(F)(F)F)c5)c4c3c2)cn1
[out] 1230

---

Quick list: DC50 per entry.
- studySystem: E3 ubiquitin-protein ligase RNF126/Serine/threonine-protein kinase RIO2 (Homo sapiens, UniProt Q9BVS4+Q9BV68)
- experimentDescription: Molecular glue degradation activity at RNF126/RIOK2 in human MOLT-4 cells assessed as induction protein degradation incubated for 12 hrs by immunoblot analysis
- Assay type: cell-based
- Sequence (Q9BVS4 whole entry): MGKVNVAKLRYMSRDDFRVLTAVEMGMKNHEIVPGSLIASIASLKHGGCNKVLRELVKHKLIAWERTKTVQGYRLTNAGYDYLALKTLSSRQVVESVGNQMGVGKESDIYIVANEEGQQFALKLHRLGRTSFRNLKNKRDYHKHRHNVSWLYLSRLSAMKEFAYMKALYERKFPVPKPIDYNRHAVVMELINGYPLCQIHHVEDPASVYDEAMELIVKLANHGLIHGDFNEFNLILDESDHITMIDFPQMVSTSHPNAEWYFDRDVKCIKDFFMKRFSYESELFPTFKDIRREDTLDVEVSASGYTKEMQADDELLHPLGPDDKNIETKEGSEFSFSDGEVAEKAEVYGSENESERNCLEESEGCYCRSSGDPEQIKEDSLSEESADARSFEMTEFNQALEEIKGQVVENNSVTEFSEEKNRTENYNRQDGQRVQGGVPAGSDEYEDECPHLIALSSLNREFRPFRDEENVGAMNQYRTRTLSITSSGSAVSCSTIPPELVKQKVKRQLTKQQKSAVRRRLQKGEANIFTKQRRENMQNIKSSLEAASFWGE
- Sequence (Q9BV68 whole entry): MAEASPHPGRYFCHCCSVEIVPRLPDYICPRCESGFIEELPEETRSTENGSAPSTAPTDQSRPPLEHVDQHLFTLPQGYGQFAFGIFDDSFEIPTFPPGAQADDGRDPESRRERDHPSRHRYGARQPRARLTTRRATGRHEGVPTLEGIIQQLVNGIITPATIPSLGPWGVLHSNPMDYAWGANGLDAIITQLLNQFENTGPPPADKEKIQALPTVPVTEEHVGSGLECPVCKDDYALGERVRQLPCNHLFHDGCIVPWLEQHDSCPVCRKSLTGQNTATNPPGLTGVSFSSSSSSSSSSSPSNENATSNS
The figure you give is taken to be in nM; do not add the unit.

In [3]: df
Out[3]:
                    compoundstructurestring  valuemeasured
0  CCOc1ccc(C(=O)/C=C/C(=O)N2CCN(c3ccc(-n4nnc5c(=O)[nH]c6ccc(-c7ccc(OC)nc7)cc6c54)cc3C(F)(F)F)CC2)cc1           1280
1  COc1ccc(-c2ccc3[nH]c(=O)c4nnn(-c5ccc(N6CCN(C(=O)/C=C/C(=O)c7ccc(Cl)cc7)CC6)c(C(F)(F)F)c5)c4c3c2)cn1           1540

Moving on to another compound below.
[in] What value of DC50 has been recorded for this entry: COc1ccc(-c2ccc3[nH]c(=O)c4nnn(-c5ccc(N6CCN(C(=O)/C=C/C(=O)c7ccc(OC(F)F)cc7)CC6)c(C(F)(F)F)c5)c4c3c2)cn1
[out] 1180

---

- experimentDescription: Half life in Sprague-Dawley rat at 5 mg/kg, iv measured for 24 hrs
- Assay type: ADME, organism-based
- testSettings: in vivo
parameterMeasured: half-life (min)
Expressed in min, but write only the number.

[in] Entry COc1ccc(-c2ccc3[nH]c(=O)c4nnn(-c5ccc(N6CCN(C(=O)/C=C/C(=O)c7ccc(F)cc7)CC6)c(C(F)(F)F)c5)c4c3c2)cn1 has what half-life?
[out] 36

---

- studySystem: E3 ubiquitin-protein ligase RNF126/Serine/threonine-protein kinase RIO2 (Homo sapiens, UniProt Q9BVS4+Q9BV68)
- experimentDescription: Molecular glue degradation activity at RNF126/RIOK2 in human MOLT-4 cells assessed as induction protein degradation incubated for 12 hrs by immunoblot analysis relative to control
- Assay type: cell-based
- Sequence (Q9BV68 2-311 partner limits assumed): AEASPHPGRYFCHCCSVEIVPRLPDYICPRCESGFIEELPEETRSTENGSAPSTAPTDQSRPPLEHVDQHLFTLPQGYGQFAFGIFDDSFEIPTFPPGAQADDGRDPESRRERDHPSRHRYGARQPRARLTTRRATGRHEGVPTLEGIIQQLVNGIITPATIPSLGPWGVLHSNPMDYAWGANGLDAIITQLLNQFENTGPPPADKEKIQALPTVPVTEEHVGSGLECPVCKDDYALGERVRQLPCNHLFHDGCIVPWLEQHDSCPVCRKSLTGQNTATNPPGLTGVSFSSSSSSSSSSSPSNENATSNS
- Sequence (Q9BVS4 whole entry): as the sequence (Q9BVS4 whole entry) above
Here, each record is paired with measured Emax data.

Answered examples (5):
>>> df
                    compoundstructurestring  valuemeasured
0  C=CC(=O)N1CCN(c2ccc(-n3nnc4c(=O)[nH]c5ccc(-c6ccc(OC)nc6)cc5c43)cc2C(F)(F)F)CC1          81.4%
1  COc1ccc(C(=O)/C=C/C(=O)N2CCN(c3ccc(-n4nnc5c(=O)[nH]c6ccc(-c7ccc(OC)nc7)cc6c54)cc3C(F)(F)F)CC2)cc1          60.1%
2  COc1ccc(-c2ccc3[nH]c(=O)c4nnn(-c5ccc(N6CCN(C(=O)/C=C/C(=O)c7ccc(F)c(F)c7)CC6)c(C(F)(F)F)c5)c4c3c2)cn1          77.3%
3  COc1ccc(-c2ccc3[nH]c(=O)c4nnn(-c5ccc(N6CCN(C(=O)/C=C/C(=O)c7ccc(OC(C)C)cc7)CC6)c(C(F)(F)F)c5)c4c3c2)cn1          66.1%
4  COc1ccc(-c2ccc3[nH]c(=O)c4nnn(-c5ccc(N6CCN(C(=O)/C=C/C(=O)c7ccc(F)cc7)CC6)c(C(F)(F)F)c5)c4c3c2)cn1          83.4%

Now turn to the next compound.
[in] Report Emax for COc1ccc(-c2ccc3[nH]c(=O)c4nnn(-c5ccc(N6CCN(C(=O)/C=C/C(=O)c7ccccc7F)CC6)c(C(F)(F)F)c5)c4c3c2)cn1 please.
[out] 62.8%

---

- experimentDescription: Antiproliferative activity against mouse NIH3T3 cells incubated for 72 hrs by CCK8 assay
- Format: toxicity, cell-based
parameterMeasured: IC50 at 72 h
Answer with the figure and its unit, nothing else.

                    compoundstructurestring  valuemeasured
0  COc1ccc(-c2ccc3[nH]c(=O)c4nnn(-c5ccc(N6CCN(C(=O)/C=C/C(=O)c7ccc(F)cc7)CC6)c(C(F)(F)F)c5)c4c3c2)cn1        1060 nM

In the following, a different compound is considered.
[in] Given COc1ccc(-c2ccc3[nH]c(=O)c4nnn(-c5ccc(N6CCNCC6)c(C(F)(F)F)c5)c4c3c2)cn1 , state its recorded IC50 at 72 h.
[out] 2840 nM

---

- experimentDescription: Half life in Sprague-Dawley rat at 10 mg/kg, ip measured for 24 hrs
- Type: ADME, organism-based
- testSettings: in vivo
parameterMeasured: half-life (h)
The reply should contain only the number, in h.

[in] Fill in: half-life of COc1ccc(-c2ccc3[nH]c(=O)c4nnn(-c5ccc(N6CCN(C(=O)/C=C/C(=O)c7ccc(F)cc7)CC6)c(C(F)(F)F)c5)c4c3c2)cn1 is ___
[out] 8.1

---

- studySystem: E3 ubiquitin-protein ligase RNF126/Serine/threonine-protein kinase RIO2 (Homo sapiens, UniProt Q9BVS4+Q9BV68)
- experimentDescription: Molecular glue degradation activity at RNF126/RIOK2 in human MOLT-4 cells assessed as induction protein degradation incubated for 12 hrs by immunoblot analysis relative to control
- Type: cell-based
parameterMeasured: Emax (%)
Your answer should be a plain number; it is taken to be in %.

Here are 6 compounds together with their reported answers.
                    compoundstructurestring  unitinfo  valuemeasured
0  COc1ccc(-c2ccc3[nH]c(=O)c4nnn(-c5ccc(N6CCN(C(=O)/C=C/C(=O)c7ccc(OC(F)(F)F)cc7)CC6)c(C(F)(F)F)c5)c4c3c2)cn1         %           84.5
1  CCOc1ccc(C(=O)/C=C/C(=O)N2CCN(c3ccc(-n4nnc5c(=O)[nH]c6ccc(-c7ccc(OC)nc7)cc6c54)cc3C(F)(F)F)CC2)cc1         %           70.6
2  COc1ccc(-c2ccc3[nH]c(=O)c4nnn(-c5ccc(N6CCN(C(=O)/C=C/C(=O)c7ccc(C)cc7)CC6)c(C(F)(F)F)c5)c4c3c2)cn1         %           72.3
3  COc1ccc(-c2ccc3[nH]c(=O)c4nnn(-c5ccc(N6CCN(C(=O)C7=CCCC7)CC6)c(C(F)(F)F)c5)c4c3c2)cn1         %           82.2
4  COc1ccc(-c2ccc3[nH]c(=O)c4nnn(-c5ccc(N6CCN(C(=O)/C=C/C(=O)c7ccccc7)CC6)c(C(F)(F)F)c5)c4c3c2)cn1         %           82.2
5  COc1ccc(-c2ccc3[nH]c(=O)c4nnn(-c5ccc(N6CCN(C(=O)/C=C/C(=O)c7ccc(OC)c(OC)c7)CC6)c(C(F)(F)F)c5)c4c3c2)cn1         %             65

[in] I am curious: what Emax value has been reported for COc1cccc(C(=O)/C=C/C(=O)N2CCN(c3ccc(-n4nnc5c(=O)[nH]c6ccc(-c7ccc(OC)nc7)cc6c54)cc3C(F)(F)F)CC2)c1 ?
[out] 68.4

[in] Bench note: what Emax did COc1ccc(-c2ccc3[nH]c(=O)c4nnn(-c5ccc(N6CCN(C(=O)/C=C/C(=O)c7ccc([N+](=O)[O-])cc7)CC6)c(C(F)(F)F)c5)c4c3c2)cn1 show?
[out] 68.1

[in] Look at this compound and give its reported Emax. COc1ccc(-c2ccc3[nH]c(=O)c4nnn(-c5ccc(N6CCN(C(=O)/C=C/C(=O)c7ccc(Cl)cc7)CC6)c(C(F)(F)F)c5)c4c3c2)cn1
[out] 75.1

[in] Form field: reported Emax of COc1ccc(-c2ccc3[nH]c(=O)c4nnn(-c5ccc(N6CCN(C(=O)/C=C/C(=O)c7ccccc7OC)CC6)c(C(F)(F)F)c5)c4c3c2)cn1
[out] 74.1

[in] // returns reported Emax for input COc1ccc(-c2ccc3[nH]c(=O)c4nnn(-c5ccc(N6CCN(C(=O)/C=C/C(=O)c7ccc(OC(F)F)cc7)CC6)c(C(F)(F)F)c5)c4c3c2)cn1
[out] 68.9

[in] Can you share its Emax? I mean this compound: COc1ccc(-c2ccc3[nH]c(=O)c4nnn(-c5ccc(N6CCN(C(=O)/C=C/C(=O)c7ccc(C(F)(F)F)cc7)CC6)c(C(F)(F)F)c5)c4c3c2)cn1
[out] 84.6

[in] Could you tell me which Emax is on file for COc1ccc(-c2ccc3[nH]c(=O)c4nnn(-c5ccc(N6CCN(C(=O)/C=C/C(=O)c7ccc(Br)cc7)CC6)c(C(F)(F)F)c5)c4c3c2)cn1 ?
[out] 70.1
